target: hMCHR1 (Homo sapiens, UniProt Q99705); test: MCHR1 pIC50 determination FLIPR assay; conditions: HEK293 cells stably transfected with hMCHR1; MCH challenge at 4xEC50
Sequence (Q99705 whole entry): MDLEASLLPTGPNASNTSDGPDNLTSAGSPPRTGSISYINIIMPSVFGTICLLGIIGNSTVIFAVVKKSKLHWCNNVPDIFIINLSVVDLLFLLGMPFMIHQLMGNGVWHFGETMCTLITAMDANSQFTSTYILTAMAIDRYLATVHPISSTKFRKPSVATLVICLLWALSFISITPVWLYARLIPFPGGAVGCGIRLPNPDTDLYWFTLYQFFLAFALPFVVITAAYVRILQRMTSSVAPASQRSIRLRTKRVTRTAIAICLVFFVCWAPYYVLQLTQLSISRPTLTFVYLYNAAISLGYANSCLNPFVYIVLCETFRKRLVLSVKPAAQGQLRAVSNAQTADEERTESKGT
pIC50: −log10 of the molar value.
quantity: pIC50

[1] CCS(=O)(=O)NCCNc1ccc(-n2ccc(OCc3ccc(Cl)cn3)cc2=O)cn1
[2] CS(=O)(=O)NCCNc1ccc(-n2ccc(OCc3ccc(Cl)cn3)cc2=O)cn1
[3] CCN(CC)CCNc1ccc(-n2ccc(OCc3ccc(Cl)cn3)cc2=O)cn1
Task for the reader: place the compounds above in descending order according to recorded pIC50. List labels; respect the requested ordering. 3, 2, 1
(3: 7.60, 2: 7.30, 1: 7.05)

Reference for the values: patent US20120083489A1
